All values here come from PubChem BioAssay.

# test_protocol: antimalarial activity against Dd2 strain (AID 2302);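 further: 0% = DMSO untreated growth and 100% = chloroquine plus artemisinin killed control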
# experimental_conditions: P. falciparum Dd2 in RBCs, LDH growth readout, 72 h; at 2 µM; active compounds read high
Recorded growth inhibition for the following molecules
Give just the number in %; leave the unit off.

Some solved entries appear below for comparison.
>>> reading("COc1cc(C(=O)N2CCN(C(C)C)CC2)ccc1CN(C)CCCCN1CCN(c2cccc(Cl)c2Cl)CC1")
98
>>> reading("CCc1cccc2c(C#N)cn(CC(=O)Nc3ccc(OC)cc3)c12")
76
>>> reading("CCCCCCOc1ccc(C(=O)N[C@H]2CCN(CCCCCNC(=O)/C=C/c3ccc(Cl)c(Cl)c3)C2)cc1")
25
>>> reading("O=S(=O)(c1ccc(NC(=S)NN=Cc2ccccn2)cc1)N1CCCCC1")
56
>>> reading("c1cc(C2=N[C@H]3CCCC[C@@H]3N2)ccc1OCCCCCOc1ccc(C2=N[C@@H]3CCCC[C@H]3N2)cc1")
23
>>> reading("Cc1cc(O)c(CN(C)Cc2ccc3c(c2)OCO3)cc1C(C)C")
74

Return growth inhibition for the following molecule: "O=S(=O)(Nc1cccc(CCN2CCC(N3CCCCC3)CC2)c1)c1cccc(C(F)(F)F)c1"
13

Return growth inhibition for the following molecule: "Cc1cc(C)cc(-n2c(C)cc(C=C3SC(=Nc4ccc(Cl)cc4)NC3=O)c2C)c1"
97

Return growth inhibition for the following molecule: "O=C(Nc1ccc(-c2ccc(-c3nc4ccccc4[nH]3)s2)cc1)c1ccncc1"
95

###

Recorded inhibition for the following compounds
# test_protocol: human hepatoma cell viability loss – ATP luminescence, cytotoxicity control for P. falciparum antimalarial project, primary screen (AID 2303);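 further: 0% = DMSO wells and 100% = digitonin-killed cells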
# experimental_conditions: HepG2 viability, 24-48 h, at 10 µM, active compounds read high
Give just the number in %; leave the unit off.

Return inhibition for the following compound: "Oc1ccc(CCNc2nc(NCCCOc3ccccc3-c3ccc(C(F)(F)F)cc3)nc(N3CCNCC3)n2)cc1"
64

Return inhibition for the following compound: "O=C(Nc1ccc(S(=O)(=O)N2CCCCC2)cc1)c1cc(-c2cc(Cl)ccc2O)n[nH]1"
36

Return inhibition for the following compound: CCCc1ccc(S(=O)(=O)NC2CCN(c3ccnc(Nc4ccc(OC)cc4)n3)C2)cc1 (stereo not given)
42

Return inhibition for the following compound: "CCOc1cc(C(=O)NC2CCN(Cc3ccccc3)CC2)ccc1-c1nc2cc(Cl)c(F)cc2[nH]1"
13

###

# test_protocol: antimalarial activity against Dd2 strain (AID 2302);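 further: 0% = DMSO untreated growth and 100% = chloroquine plus artemisinin killed control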
# experimental_conditions: P. falciparum Dd2 in RBCs, LDH growth readout, 72 h; at 2 µM; active compounds read high
measured_metric: growth inhibition (%)
Give just the number in %; leave the unit off.

Some solved entries appear below for comparison.
>>> reading("CC(Oc1ccc(Cl)cc1Cl)c1nc(-c2ccc(NC(=O)c3ccco3)cc2)no1 (centres undefined)")
82
>>> reading("CCc1cccc(OCCCON2C(N)=NC(N)=NC2(C)C)c1")
94
>>> reading("O=C(N[C@@H](CC1CCCCC1)C(=O)NCCN1CCOCC1)c1ccc(O)c(-c2ccc(Cl)c(Cl)c2)c1")
99
>>> reading("CC1(C)[C@H]2CC[C@]1(C)CN(CC(O)Cn1c3ccccc3c3cc(I)ccc31)C2 (some centres undefined)")
82
>>> reading("COc1ccc2nccc(NCC3(O)CCN(CC(O)c4ccc5c(c4)NC(=O)CS5)CC3)c2n1 (centres undefined)")
3
>>> reading("CC(=O)Nc1ccc(S(=O)(=O)N(Cc2cccc(Oc3ccccc3)c2)C2CCN(C/C=C(\\C)CCC=C(C)C)CC2)cc1")
99
>>> reading("COc1ccc2cc(C(=O)NC3CCC(CCN4CCc5cc(C#N)ccc5C4)CC3)[nH]c2c1 (centres undefined)")
-1
>>> reading("CO/C(=C\\C=C\\c1cc2cc(Cl)c(Cl)cc2[nH]1)C(=O)NC1C[C@@H](C)N(C)[C@@H](C)C1 (some centres undefined)")
57

# ---- query molecule ----
Return growth inhibition for the following molecule: "COc1ccc(Cl)cc1N1CCN(CCCNC(=O)c2ccc(-c3nc4cc(Cl)c(F)cc4[nH]3)c(F)c2)CC1"
91
